Sequence of the target: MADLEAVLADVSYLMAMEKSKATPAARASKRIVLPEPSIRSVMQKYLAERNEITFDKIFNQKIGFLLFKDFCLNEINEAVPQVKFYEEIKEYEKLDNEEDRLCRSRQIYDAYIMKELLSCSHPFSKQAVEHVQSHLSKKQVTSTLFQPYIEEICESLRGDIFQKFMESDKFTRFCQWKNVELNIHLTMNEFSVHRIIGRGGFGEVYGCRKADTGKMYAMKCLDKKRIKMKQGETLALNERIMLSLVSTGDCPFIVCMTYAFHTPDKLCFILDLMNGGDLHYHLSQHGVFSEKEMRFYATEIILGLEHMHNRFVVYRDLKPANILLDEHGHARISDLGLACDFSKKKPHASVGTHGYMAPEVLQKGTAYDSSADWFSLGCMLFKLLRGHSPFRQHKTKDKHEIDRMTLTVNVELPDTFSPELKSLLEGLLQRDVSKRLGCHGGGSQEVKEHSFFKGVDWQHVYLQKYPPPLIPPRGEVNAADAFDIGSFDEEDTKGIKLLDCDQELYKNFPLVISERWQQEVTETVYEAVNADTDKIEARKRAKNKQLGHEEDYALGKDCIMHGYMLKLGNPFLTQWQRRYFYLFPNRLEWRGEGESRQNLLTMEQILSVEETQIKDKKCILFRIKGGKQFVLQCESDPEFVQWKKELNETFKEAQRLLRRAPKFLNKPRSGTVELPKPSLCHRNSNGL
pIC50: −log10 of the molar value.
Measurement Type: pIC50

In [3]: df
Out[3]:
                               smiles_entry  measurement_type  reported
0  Cn1c(CNc2cccc(C(=O)NCc3ccccc3C(F)(F)F)c2)nnc1-c1ccncc1             pIC50      6.54
